# Test system: K4 kissing-loop RNA reporter
# Run Description: apparent KD of K4 kissing-loop reporter; higher = weaker reporter binding
# Condition Label: Eterna round: R107; input ligand: theophylline 20 uM
# label = Condition met if apparent KD of K4 kissing-loop reporter >= 300 nM else Condition not met

Worked cases, answers included:
GGAUAGGAUAGAGGAUAUGGGUUAGGCAAGAAUAACUUGUCUUGUAAAUCCAUGAGGAGUGAUGUUCCAGAAGGCUGUCCUAUCG [MatMod 5 - Jieux - Exclusion - FMN B]
Condition not met
GGCAUGCGUAGAGUGAUGUUCUAAGAUGAUACCAGUGCGGAAACGCACCCUUGGCAGCAUCUGACUGGCAUGCCGGCGAAAGCCU
Condition met
CCGCCGGUCGGAAGGAGCGCACGCCAGAGUGAUGUUCUGGCGCGGGCAUUUUGUGCCCGCGUGCAGGUAGGUCGCCGAUUCUGGC [Quxeorti]
Condition met
CGCAGUGAUGUUGCGAACAUAAUGCAUUCAGAGGAUAUUCGUUUGGGAAGAAGGCUGAAUCGUUUUUCGAGUGAUGUUUGAGGAA [Same State FMN A GF 18]
Condition not met
GGGAGUAGUGCGGCCGCCACUGAGAAAGAAGAAGAAUAUAGUGAUGUUAUAUAGGAAUAAAAGAAUAGGACCGGGCAUUAGAUUU [SSTRyptB.S]
Condition not met

Now look at this entry.
Please indicate if the recorded apparent KD of K4 kissing-loop reporter for GUCUCCGUCGAUGAUACCAGUCGAUGUACGUCAGGUACCCUUUGAGUGAUGUUCAGAUUAGACCCUUGGCAGCAUAUCGAGGCUC [theeternabot_exclusion_KL_Theo_B_24] meets or exceeds 300 nM.
Condition met

====

# Test system: MS2 coat protein
# Run Description: apparent KD of MS2 coat protein; designed switch direction (-1 OFF switch, 1 ON switch): -1; higher = weaker reporter binding
# Condition Label: input ligand: none
Listed here are sequences together with their documented apparent KD of MS2 coat protein.
Answer in nM, number only, no unit symbol.

# annotated cases, reported apparent KD of MS2 coat protein shown
UGCCGUUGAGGAUAUACAUUGAAUUUGAUUCAUGUAAAACUACAUGAGGAUCACCCAUGUAGAAGGCAAUGGCU [Mat - Exclusion 2 - JL Mod - D63] (Eterna round: R97, puzzle: Exclusion 2)
21.3
AUGCUCCGUGUAGGAUAUCGCCGCACCACUCGGCGAGAAGGACAUGAGGAUCACCCAUGUAUGUUAUUAUCACGUGUGGCGCGC [Design 43] (Eterna round: R96, puzzle: Exclusion NG 1)
15.9
ACAUGAGGAUCACCCAUGUGACCACGAUGGCUGAUGUAGACCUAGGAUAUGUGUGAAUAUCUAUCACAGAAGGAGGUUGACUGG [Deportation 51 - Jieux - Exclusion NG 3] (Eterna round: R96, puzzle: Exclusion NG 3)
42.7
AUCAUGGACGCAGGAUAUACAUGAGGAUCACCCAUGUAGUAUGAUCAGUGAUGGUCGUCGAUAGUGUAGAAGGGCGGCUAGUAG [random] (Eterna round: R96, puzzle: Exclusion NG 2)
32.8

Please report the recorded apparent KD of MS2 coat protein for AGUGUGUGGCAGGAUAUGCAAUUUAUAGGUGAAGCAGAAGGGUCUACAUGAGGAUCACCCAUGUGUGCGGUUGA [Ex6 #20] (Eterna round: R97, puzzle: Exclusion 6) .
188

====

Listed here are sequences together with their documented apparent KD of MS2 coat protein.
# System: MS2 coat protein
# Run Description: apparent KD of MS2 coat protein; designed switch direction (-1 OFF switch, 1 ON switch): -1; higher = weaker reporter binding
# Condition Label: input ligand: none
Answer in nM, number only, no unit symbol.

GGAUCACAUGUUAGGAUAUGCAGGUCCUUGGAUCUGCAGAAGGGACAUGAGGAUCACCCAUGUCAUGAAGAUCC [Mat - Exclusion 4 - Eli Mod - D52] (Eterna round: R97, puzzle: Brourd's mod of Exclusion 4)
21

Please report the recorded apparent KD of MS2 coat protein for AAAAUGUAAGGAUAUCGUUCACUUGACAAAAGUCAAGUGAACGAGAAGGUACAUGAGGAUCACCCAUGUAUGGG [-29.9, -29 kcal, A 38%] (Eterna round: R97, puzzle: Exclusion 4) .
1340

What do you have for GGUGCGUAUGUGAGGAUAUGCUGGUCCUUGGAUCAGCAGAAGGCACAUGAGGAUCACCCAUGUGGUGUCGUGCC [salish99_Bmod_Ex4_019] (Eterna round: R96, puzzle: Brourd's mod of Exclusion 4) ?
1050

What do you have for GAACCAUGAGGAUAUUCUGAUCCUUACAUGAGGAUCACCCAUGUGAGUACAAAAGUACUCGAAGAAGGCAUGGUUC [Omei Ex5 B1] (Eterna round: R97, puzzle: Exclusion 5) ?
2130

What do you have for AUGAUACAUGAGGAUCACCCAUGUUAGGAUAUACGCAUGCAUGCAUGCAUGCAUGCAAGUAGAAGGAACCAUGC [Design #2] (Eterna round: R97, puzzle: Exclusion 1) ?
48.2

====

# Test system: K4 kissing-loop RNA reporter
# Run Description: apparent KD of K4 kissing-loop reporter; higher = weaker reporter binding
# Condition Label: Eterna round: R107; input ligand: none
Each entry falls into one class according to its apparent KD of K4 kissing-loop reporter; the ranges are 0: < 100 nM; 1: ≥ 100 nM and < 300 nM; 2: ≥ 300 nM

CGUAGUUGGGCGGCCGCCACUUGAAAAGCUUUGCCAAAGGCAGAGCUCUAGAGUGAUGUUCUGGCAAGGACCGGGUCCAACUACA [#03 K4 Tryptophan B Same State]
2
AACAGCAAUGCGGCCGCCACUUCGAGGUCAGUGAUGUUGACGGGAUUAAAUAAAGAUCCCAAGAGGAGGACCGGGCAGUGCUGUU [whbob_SS_Tryp_B_t26]
1
UAAUCCUAGUGAUCCUUAUCAAGUGGUGGGCGAGGACCGGUACGGCCGCCACUCGAAUAUGCAGUGAUGUUGUAAUCCGGAUAAU [Exclusion - Tryptophan A (Freestyle 9)]
2
ACAUCGGUUGAGAGUGAUGUUCCUUGUGUUCGAGGACCGGUACGGCCGCCACUCGGGUAGAAAAUAACAGAUGUGUUUCCUUUUU [BDazzled - #18 SS Tryptophan A]
1

Now look at this entry.
Class (by measured apparent KD of K4 kissing-loop reporter) for AAAUAGAUCAGUCACCCAGUGAUGUUGGAAGGAGCGUGCGAAAGCACAGGUAGGUCGCCAAAAUAAAAUUGGCUGAUCAAAAUAA
2

====

Listed here are sequences together with their documented apparent KD of MS2 coat protein.
# Tested on: MS2 coat protein
# Run Description: apparent KD of MS2 coat protein; designed switch direction (-1 OFF switch, 1 ON switch): -1; higher = weaker reporter binding
# Condition Label: input ligand: microRNA oligo, concentration not stated
Answer format reminder: number followed by unit.

# annotated cases, reported apparent KD of MS2 coat protein shown
AAGAAAGAGUUAGGAUAUACAUGAGGAUCACCCAUGUGGUGGUAAAUCCGCUGGGUCGGUUCGAUGUAGAAGGAACAACCGCCG [Inisinlaon] (Eterna round: R96, puzzle: Exclusion NG 2)
18.7 nM
AGCUGUGGCCGAGGAUAUCUAGCUUCAAUAACCGAAAUAUAAUCGGACAUGAGGAUCACCCAUGUAGAGAAGGCGGUCUCAGCA [Eli eng2 - 084] (Eterna round: R96, puzzle: Exclusion NG 2)
22.3 nM

Next:
Please report the recorded apparent KD of MS2 coat protein for GUCUUCAUGACAUGAGGAUCACCCAUGUGUUAUAUGUUAACUAAGGAUAUAUUUUUAAUGUUGAGAUAGAAGGUAGUUUCGGUC [JR_ExcNG3_Sub091] (Eterna round: R96, puzzle: Exclusion NG 3) .
95.8 nM

====

# System: K4 kissing-loop RNA reporter;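 further: bound reporter read as fluorescence of individual clusters on recovered sequencing chips by microscopy, with normalized cluster intensities fitted with a binding model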
# Run Description: apparent KD of K4 kissing-loop reporter; higher = weaker reporter binding
# Condition Label: Eterna round: R107; input ligand: none
Listed here are sequences together with their documented apparent KD of K4 kissing-loop reporter.
Answer in nM, number only, no unit symbol.

Query for K4 kissing-loop RNA reporter: what apparent KD of K4 kissing-loop reporter does the record show for UGAGAGUACCGGAUGGAGAAAUUGUAUGAUACCAGAGCAGAUUACCUCCCUUGGCAGCAUGCAUCCUGCUAGUGAUGUUGGCAAC [theeternabot_sameState_KL_Theo_A_48] ?
741

What do you have for AUUUAGACGAGUGAUGUUCGUGUUAUUACAGAGGAUAUGCGUAAUUGCAGAAGGCUGUAUUUAUAUAUGUUAUGUAGUUUUAAAA [whbob_Ex_FMNA__2th184] ?
84.8

What do you have for UAUAUACAUUUAUUAAUUAAAGGUUCAGAAGGAGCGUGAAUUAACACAGGUAGGUCGCUGAGCGAGUGAUGUUCGCUAUAUGGUA [JR_ExcArginiA_Sub005] ?
70.5

What do you have for AAACAACGUGACGAUACCAGCUUACUCGGCAAGCCAGUGAUGUUGGUGAAAAGGAGUCAAAGCCCUUGGCAGCGUCGAAGGUCUG [Georbeer] ?
427

What do you have for GUCCCAGUGAUGUUGGUAGGCGAGCGGGAUACCAGCGAAGACUCACGCCCUUGGCAGCCCACAUAUCCCACGUAGGGAUUAGCUC [Same State - Theophylline A (Freestyle 20)] ?
378

What do you have for AGGUCCGAGCCCGCAAGGGCUCGGACCUGUUAGGAUAUGACGUUAUUCAGAAGGGAUGGGUGGAGUGAUGUUCCACCCGCGAGGG [#2 Same State - FMN A Attempt #12 (HarryS)] ?
202
